system: SNB-75 CNS; experiment: NCI tumour cell line growth inhibition, 48 h; in the data active means GI50 below about 0.43 µM; inactive means the rest
Where a SMILES comes first, the peptide text is derived from it. [ ]: non-standard residue; d: D form. The star is where a group is joined. ξ: configuration not given here. X6 = FC(F)(F)c1cc(NC(=S)*)cc(C(F)(F)F)c1; ξF = NC(Cc1ccccc1)C(=O)O
Classes used: t = active, f = inactive

{"columns": ["compound", "experimental system", "group"],
 "data": [
  ["CC1(C)CCc2c(c3c(c4c(=O)c(O)c(-c5ccc(O)cc5)oc24)OC(C)(C)CC3)O1", "SNB-75 CNS", "f"],
  ["CC/C=C\\CCC/C=C1/C(=O)C=C[C@@H]1C/C=C\\CCCC(=O)OC", "SNB-75 CNS", "f"],
  ["Cc1c2cnccc2c(C)c2c1c1ccccc1n2CCCN", "SNB-75 CNS", "t"],
  ["COC1=CC(=O)c2nc(-c3ccncc3)[nH]c2C1=O", "SNB-75 CNS", "f"],
  ["CC1=C(C(=O)Nc2ccc(Cl)c(Cl)c2)C(c2cccc(Oc3ccccc3)c2)NC(=S)N1 (stereo not given)", "SNB-75 CNS", "f"],
  ["O=C([O-])CC(=O)[O-].O=C([O-])CC(=O)[O-].[K+].[Pd+2]", "SNB-75 CNS", "f"],
  ["Cn1cc(C2=C(c3cn(C)c4ncccc34)C(=O)NC2=O)c2ccccc21", "SNB-75 CNS", "f"],
  ["CC(C)CCC[C@@H](C)[C@H]1CC[C@H]2[C@@H]3CC=C4C[C@@H](C(C(=O)O)C(=O)O)CC[C@]4(C)[C@H]3CC[C@]12C", "SNB-75 CNS", "t"],
  ["Cc1nc2ccccc2c(N)c1-c1cc(C)c2c(C)nc3ccccc3c2n1", "SNB-75 CNS", "f"],
  ["NC(=O)c1cccc2cn(-c3ccc([C@@H]4CCCNC4)cc3)nc12", "SNB-75 CNS", "f"],
  ["Cn1c2ccccc2c2c(Nc3ccccc3)c3ccccc3nc21", "SNB-75 CNS", "f"],
  ["COC(=O)[C@@H](NC(=O)CNC(=O)[C@H]1CCCN1C(=O)C(Cc1ccccc1)NC(=S)Nc1cc(C(F)(F)F)cc(C(F)(F)F)c1)C(C)C (stereo not given in full) (X6-[ξF][dP]GV-OMe)", "SNB-75 CNS", "f"],
  ["CC[C@@]1(O)C[C@H](OC2CC(N(C)C)C(O)C(C)O2)c2c(O)c3c(c(O)c2[C@H]1OC1CC(N(C)C)C(O)C(C)O1)C(=O)c1cccc(O)c1C3=O (stereo not given in full)", "SNB-75 CNS", "t"],
  ["CSc1nc2c(c(=O)[nH]1)N=C1c3ccccc3C(=O)C1C(c1ccccc1)N2 (stereo not given)", "SNB-75 CNS", "f"],
  ["NC(Cc1c[nH]c2c(O)cccc12)C(=O)O (stereo not given)", "SNB-75 CNS", "f"]
]}

----------
Entries and their GI50
tested on: HCC-2998 colon; experiment: NCI tumour cell line growth inhibition, 48 h
reported metric: GI50

{"columns": ["compound", "experimental result"],
 "data": [
  ["COc1cc(-c2nn(-c3ccc(NC(=O)c4ccc(Cl)c(C(F)(F)F)c4)cc3)cc2-c2ccncc2)ccc1Cl", "3220 nM"],
  ["O=C1/C(=C/c2cccc([N+](=O)[O-])c2)COc2ccc(O)cc21", "1750 nM"],
  ["CO[C@H](C(=O)[C@@H](O)[C@@H](C)O)[C@@H]1Cc2cc3cc(O[C@H]4C[C@@H](O[C@H]5C[C@@H](O)[C@H](O)C(C)O5)[C@H](O)C(C)O4)c(C)c(O)c3c(O)c2C(=O)[C@H]1O[C@H]1C[C@@H](O[C@H]2C[C@@H](O[C@H]3C[C@](C)(O)C(=O)C(C)O3)[C@@H](O)C(C)O2)[C@H](O)C(C)O1 (stereo partly drawn)", "222 nM"],
  ["CCCCCN(CCCCC)CC(O)c1cc(C)c2ccc3cc(C(C)C)ccc3c2c1 (stereo not drawn)", "1850 nM"],
  ["NC(Cc1c[nH]c2c(O)cccc12)C(=O)O (stereo not drawn)", "> 100000 nM"],
  ["COc1cc(CNc2cnc3cc(N)cc(N)c3n2)cc(OC)c1", "11700 nM"],
  ["Cc1cc(I)cc(CN(C)CCCCN2CCCCC2)c1O", "16000 nM"],
  ["Clc1ccc2c(NCCCCNc3nc(N4CCCCC4)nc4ccccc34)ccnc2c1", "1960 nM"]
]}

----------
test system: DMS 114 small cell lung; test: NCI tumour cell line growth inhibition, 48 h
Listed here are molecules together with their documented TGI.
reported metric: TGI

{"columns": ["molecule", "experimental system", "reported metric", "experimental result"],
 "data": [
  ["CC(C)C/C(CC(=O)CCC(=O)Nc1ccccc1[N+](=O)[O-])=N\\NC(=O)c1cc2ccccc2cc1O", "DMS 114 small cell lung", "TGI", "86.8 µM"],
  ["O=C(COc1ccc(Br)cc1Br)N1N=C(c2ccc([N+](=O)[O-])o2)CC1(O)c1ccccc1 (stereo unspecified)", "DMS 114 small cell lung", "TGI", "23.5 µM"],
  ["CCOc1ccc(NC(=O)C(=O)CC(=O)c2c[n+](=O)c3cc(C)c(C)cc3n2[O-])cc1", "DMS 114 small cell lung", "TGI", "> 100 µM"],
  ["COc1cc([C@@H]2OCC3C(c4ccc5c(c4)OCO5)OCC32)cc(OC)c1OC (stereo partly specified)", "DMS 114 small cell lung", "TGI", "> 100 µM"],
  ["CCOC(=O)CN1C(=O)c2cccc3cc([N+](=O)[O-])cc(c23)C1=O", "DMS 114 small cell lung", "TGI", "4.94 µM"],
  ["COc1cc2c(cc1OC)-c1c3cc(O)ccc3nn[n+]1CC2", "DMS 114 small cell lung", "TGI", "> 100 µM"],
  ["Cc1cc(=O)[nH]c(NN2C(Cl)C(=O)C2c2ccccc2O)n1 (stereo unspecified)", "DMS 114 small cell lung", "TGI", "6.44 µM"],
  ["CNS(=O)(=O)NNS(=O)(=O)c1ccc2ccccc2c1", "DMS 114 small cell lung", "TGI", "> 100 µM"],
  ["O=C(N/C(=C\\c1ccc(/C=C(\\NC(=O)c2ccccc2)c2nc3cc([N+](=O)[O-])ccc3[nH]2)cc1)c1nc2cc([N+](=O)[O-])ccc2[nH]1)c1ccccc1", "DMS 114 small cell lung", "TGI", "> 100 µM"],
  ["COC1(OC)CCC2C1C1CCC(OC)(OC)C21 (stereo unspecified)", "DMS 114 small cell lung", "TGI", "> 50 µM"],
  ["O=C(Nc1ccc(C2=NCCN2)cc1)c1cncc(C(=O)Nc2ccc(C3=NCCN3)cc2)c1", "DMS 114 small cell lung", "TGI", "> 100 µM"],
  ["O=C(CC1(O)C(=O)Nc2c(Cl)cc(Cl)cc21)c1ccc(Br)cc1Br (stereo unspecified)", "DMS 114 small cell lung", "TGI", "20.3 µM"],
  ["CN1C(=O)C(C)(C)C2(SC(C)(C)C2(C)C)N(C)C1=S (stereo unspecified)", "DMS 114 small cell lung", "TGI", "> 100 µM"],
  ["O=C1CCC23CC(C=CC=C12)n1c(=O)n(-c2ccccc2)c(=O)n13 (stereo unspecified)", "DMS 114 small cell lung", "TGI", "> 100 µM"],
  ["COC(=O)CC1CCN(C#N)CC1CC[N+](=O)[O-] (stereo unspecified)", "DMS 114 small cell lung", "TGI", "> 100 µM"],
  ["CCN(CC)CCC(=O)Nc1ccc2c(c1)C(=O)c1ccc(NC(=O)CCN(CC)CC)cc1C2=O", "DMS 114 small cell lung", "TGI", "13 µM"],
  ["Cc1nc2ccccc2c(=O)n1-c1ccccc1I", "DMS 114 small cell lung", "TGI", "> 100 µM"],
  ["CCCCCCCCCCCCCCCCCC(CCCCCCCCCCCCCCCCC)OP(=O)(O)O", "DMS 114 small cell lung", "TGI", "> 100 µM"],
  ["O=C1c2ccccc2C2C1N2C(=O)C(F)(F)F (stereo unspecified)", "DMS 114 small cell lung", "TGI", "> 100 µM"],
  ["CCCCCCCCCCCOc1ccc(C(=O)C(=O)c2ccc(OCCCCCCCCCCC)c(OCCCCCCCCCCC)c2)cc1OCCCCCCCCCCC", "DMS 114 small cell lung", "TGI", "> 100 µM"],
  ["CN(C)CC[N+]1=Nc2cccc3cccc(c23)N1", "DMS 114 small cell lung", "TGI", "> 100 µM"]
]}

----------
test system: MDA-N; assay: NCI tumour cell line growth inhibition, 48 h
reported metric: TGI

{"columns": ["compound", "experimental result"],
 "data": [
  ["Cc1cc(O)c2c(=O)c3ccccc3[nH]c2c1", "> 100 µM"],
  ["COc1ccc(/C=C2\\CCC(C)C3=C2NC(=S)NC3c2ccc(OC)c(OC)c2)cc1OC (stereo not given)", "12.1 µM"],
  ["c1ccc(N=C2SC3=Nc4cccc5cccc(c45)N3C2=Nc2ccccc2)cc1", "> 100 µM"],
  ["Cc1c2cnccc2c(C)c2c1c1ccccc1n2CCCN", "1.39 µM"],
  ["CCOc1cc2c(cc1O)/C(=N\\OC)C[C@@H]1[C@@H]2CC[C@]2(C)[C@@H](O)CC[C@@H]12", "0.031 µM"],
  ["N=c1n(C(=O)N2CCCC2)c2cc(Cl)ccc2n1C1=NCCN1", "> 100 µM"],
  ["O=C(O)c1cccc2c1/C(=N/Nc1ccccc1)CC2", "> 100 µM"],
  ["CCOC(=O)[C@]1(OC(C)=O)C[C@H](OC(C)=O)[C@@H](C(F)COP(=O)(OCc2ccccc2)OCc2ccccc2)O1 (stereo not given in full)", "> 100 µM"],
  ["C=C(C1=CC(=O)C(C)(C)O1)[C@@H]1CC=C([C@@H]2CC[C@H]3[C@@]2(C)CC[C@H]2C(C)(C)C(=O)[C@H](O)C[C@]32C)[C@H](O)O1", "3.58 µM"],
  ["O=C(CCC(=O)c1ccc(Cl)cc1)NO", "> 100 µM"]
]}
